z-score listing for selected compounds.
- method summary: adipocyte viability effects, profiling panel, cell-based, 3T3-L1 adipocytes, calcein-AM fluorescence, 48 h, basal (AID 1163); also: test concentration not given here
- condition label: 3T3-L1 adipocytes viability, higher = more signal

compound string	z-score
C=CC[C@@H]1C=C[C@H](ON=C(C)CCN2CCCc3nc(C)c(C)cc32)[C@@H](CO)O1	-0.0137
C=CC[C@@H]1C=C[C@H](ON=C[C@@H](NS(=O)(=O)c2ccc(C)cc2)[C@H](C)C=CCC(=O)OC)[C@@H](CO)O1	0.359
C[C@H]1CC[C@H]2C(=O)N[C@H](Cc3ccccc3)C(=O)N2[C@@H]1c1ccccc1	0.283

====

- method summary: binders of probe aFGF10 on microarray, primary screen, stem cell growth factor project, biochemical, small-molecule microarray, fluorescence 635/667 (AID 1071);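 also: score merges 667 nm spot intensity and signal to noise from triplicate slides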
- condition label: higher = more signal
The label depends only on composite z-score: Yes if it is at least 0.3, No if it is smaller.

compound	assigned category
COC(=O)CC=C[C@@H](C)[C@@H](C=NOC[C@@H](O)[C@H]1O[C@@H]2OC(C)(C)O[C@@H]2[C@H]1O)OC	No
CCCNC(=O)OC[C@H]1O[C@H](CCON=C2c3cc(OC)ccc3O[C@H](c3cccc(OC)c3)[C@H]2O)C=C[C@@H]1Oc1ccc(OC)cc1	Yes
CC(C)=NOC[C@@H](O)[C@H]1O[C@@H]2OC(C)(C)O[C@@H]2[C@H]1O	Yes
CO[C@@H](C(C)C)[C@@H](C)C1OC(=O)CC1O (stereo partly specified)	No
CCOC(=O)[C@H](Cc1ccccc1)NC(=O)CCC1CC(OC(=O)NCc2cccc3ccccc23)CC2(CCCC(COC(=O)NCCOc3ccccc3)O2)O1 (stereo partly specified)	No

====

composite z-score listing for selected molecules.
- method summary: compound binding in COS7 lysate, probe aLAP1, primary screen, cell lysate, small-molecule microarray (AID 1124);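 also: lysate comes from COS7 cells expressing LAP1 and is applied at 0.3 µg/mL; score merges spot fluorescence near 667 nm with signal-to-noise over triplicate slides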
- condition label: probe aLAP1, fluorescence, higher = more signal
property: composite z-score

molecule	recorded result
O=C1[C@H]2[C@H]3[C@H](O)[C@H](O)CC(=NOC[C@@H](O)COCc4ccco4)[C@@H]3CC[C@H]2C(=O)N1Cc1ccc2c(c1)OCO2	0.123
CC(C)CN1CCc2nc(-c3ccccc3)c3c(c2C1)CO[C@@H](C)C3	0.0322
CCOC(=O)[C@H](Cc1ccccc1)NC(=O)CCC1CC(OC(=O)NCc2cccc3ccccc23)CC2(CCCC(COC(=O)NCc3ccc4c(c3)OCO4)O2)O1 (some centres not stated)	0.404
C[C@@H]1CC[C@H]2C(=O)O[C@@H](CN=[N+]=[N-])CN2[C@H]1c1ccc(Br)cc1	0.373
O=C1[C@H]2[C@H]3[C@H](O)[C@H](O)CC(=NO[C@@H]4O[C@H](CO)[C@@H](O)[C@H](O)[C@H]4O)[C@@H]3CC[C@H]2C(=O)N1C[C@@H]1CCCO1	-0.136
CC(C)CON=C1C[C@@H](O)[C@@H](O)[C@@H]2[C@@H]3C(=O)N(Cc4ccc5c(c4)OCO5)C(=O)[C@@H]3CC[C@@H]12	-0.0121
CCOC(=O)NN=C1C[C@@H](O)[C@@H](O)[C@@H]2[C@@H]3C(=O)N(C[C@@H]4CCCO4)C(=O)[C@@H]3CC[C@H]12	0.299
CC(C)C(=O)N[C@H]1CCCN1C(=O)C=Cc1ccccc1	0.0905
COC(=O)[C@H](C)NC(=O)CCC1CC(OC(=O)NCCc2ccc(F)cc2)CC2(CCCC(COC(=O)NCCOc3ccccc3)O2)O1 (some centres not stated)	-0.0401
CC(CCN1CCCCc2nc(C)c(C)cc21)=NOC[C@@H](O)[C@H]1O[C@@H]2OC(C)(C)O[C@@H]2[C@H]1O	-0.258
O=C(NN=C1C[C@@H](O)[C@@H](O)[C@@H]2[C@@H]3C(=O)N(Cc4ccccc4)C(=O)[C@@H]3CC[C@H]12)OCc1ccccc1	0.0639
O=C1C2=CC[C@H]3C(=O)N(Cc4ccccc4)C(=O)[C@H]3[C@H]2[C@H](O)[C@@H]2O[C@H]12	-0.11
